TARGET_UNDER_TEST: T1, Rhesus macaque CD4-HIS (Acro Biosystems, Cat. CD4-C52H7) (rhesus macaque, UniProt P16003 26-390)
T1 construct: Bought reagent; also called Rhesus CD4; rhesus CD4-HIS; not shown: His tag
ASSAY_REMARKS: BLI Octet, mAb on anti-mouse Fc sensor, rhesus CD4-HIS 25-100 nM, 1:1 global fit;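 further: purified antibodies captured at 10 µg/mL, rhesus CD4 analyte run as a three-concentration serial dilution, irrelevant antibody as reference control, one kinetic constant set per antibody from global fitting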
RECORDED_ENDPOINT: kon (M⁻¹ s⁻¹)

>>> measured_number("75110_03C01A (antibody, V domains shown, Tested as antibody purified from AlivaMab Mouse hybridoma supernatant (captured by anti-mouse IgG Fc)) VH: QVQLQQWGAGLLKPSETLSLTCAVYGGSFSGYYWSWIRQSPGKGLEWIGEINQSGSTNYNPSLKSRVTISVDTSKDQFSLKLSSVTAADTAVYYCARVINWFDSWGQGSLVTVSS VL: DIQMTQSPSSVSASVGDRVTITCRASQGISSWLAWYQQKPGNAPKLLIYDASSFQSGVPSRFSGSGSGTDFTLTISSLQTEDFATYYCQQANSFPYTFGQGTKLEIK")
280000

Cited source for all entries: patent US20220112288A1
